From: patent US20220211692A1

biological target: F508del/F508del CFTR (Homo sapiens, UniProt P13569, DEL508-508); construct: cells isolated from CF patients with the homozygous mutation; endogenous in cells; host or cells: primary human bronchial epithelial (hBE) cells from CF patients homozygous for F508del; assay: Trans-Epithelial Current Clamp (TECC) assay using primary human bronchial epithelial cells; format: cell-based; conditions: maximum percent activity relative to positive control (co-corrector 0.15 μM + potentiator 0.45 μM = 100%)
Sequence (P13569 with tags, fused parts or gaps DEL508-508): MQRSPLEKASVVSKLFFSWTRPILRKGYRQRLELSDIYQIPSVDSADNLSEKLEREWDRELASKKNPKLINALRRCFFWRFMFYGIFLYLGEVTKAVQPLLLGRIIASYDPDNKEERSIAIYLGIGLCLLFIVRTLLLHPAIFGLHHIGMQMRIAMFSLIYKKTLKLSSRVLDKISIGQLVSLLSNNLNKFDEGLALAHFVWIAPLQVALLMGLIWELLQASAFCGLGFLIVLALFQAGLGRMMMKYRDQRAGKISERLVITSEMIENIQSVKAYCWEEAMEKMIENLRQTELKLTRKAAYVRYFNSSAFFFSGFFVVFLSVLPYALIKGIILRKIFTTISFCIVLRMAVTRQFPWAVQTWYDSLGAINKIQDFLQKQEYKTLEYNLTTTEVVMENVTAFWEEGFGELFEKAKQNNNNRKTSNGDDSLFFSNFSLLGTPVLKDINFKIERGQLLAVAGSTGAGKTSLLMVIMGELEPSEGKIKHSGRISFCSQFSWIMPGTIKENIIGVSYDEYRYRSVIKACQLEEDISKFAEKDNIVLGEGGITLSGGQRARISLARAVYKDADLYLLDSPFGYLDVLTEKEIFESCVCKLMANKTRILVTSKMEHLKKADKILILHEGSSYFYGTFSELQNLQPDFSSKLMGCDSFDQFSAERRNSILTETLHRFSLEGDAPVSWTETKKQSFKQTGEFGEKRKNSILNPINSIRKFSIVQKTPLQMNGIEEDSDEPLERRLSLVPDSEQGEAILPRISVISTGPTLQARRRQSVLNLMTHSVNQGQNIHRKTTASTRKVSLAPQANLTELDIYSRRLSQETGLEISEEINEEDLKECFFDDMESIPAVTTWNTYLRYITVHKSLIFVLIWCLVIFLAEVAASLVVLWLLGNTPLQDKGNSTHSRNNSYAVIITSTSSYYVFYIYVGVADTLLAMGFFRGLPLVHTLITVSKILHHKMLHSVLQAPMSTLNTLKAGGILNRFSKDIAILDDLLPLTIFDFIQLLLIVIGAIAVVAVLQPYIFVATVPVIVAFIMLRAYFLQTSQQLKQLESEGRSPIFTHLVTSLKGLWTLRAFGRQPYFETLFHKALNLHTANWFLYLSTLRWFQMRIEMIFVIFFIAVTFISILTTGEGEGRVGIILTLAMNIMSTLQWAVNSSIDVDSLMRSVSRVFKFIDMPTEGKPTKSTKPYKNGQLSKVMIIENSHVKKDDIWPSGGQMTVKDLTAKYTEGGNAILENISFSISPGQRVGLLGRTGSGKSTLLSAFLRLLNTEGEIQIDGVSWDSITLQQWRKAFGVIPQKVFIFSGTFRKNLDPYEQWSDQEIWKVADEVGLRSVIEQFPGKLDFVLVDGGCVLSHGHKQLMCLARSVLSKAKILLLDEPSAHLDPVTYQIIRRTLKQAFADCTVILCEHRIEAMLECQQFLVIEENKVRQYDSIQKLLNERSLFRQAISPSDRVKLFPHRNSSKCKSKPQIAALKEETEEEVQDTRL
QUANTITY: Emax (% Dual)

MOLECULE: CCc1ccc(Oc2cccnc2OC)c(C2(C(=O)NS(=O)(=O)c3cccc4nc(C)ccc34)CCCO2)c1 (stereo not shown) [Example 18]
QUANTITY: Emax (% Dual)
REPORTED RESULT: 152
//
MOLECULE: CCc1ccc(Oc2ccccc2)c([C@]2(C(=O)NS(=O)(=O)c3cccc4nc(C)ccc34)CCCO2)c1 [Example 22]
QUANTITY: Emax (% Dual)
REPORTED RESULT: 200

[1] CCc1ccc(Oc2cccnc2OC(F)F)c(C2(C(=O)NS(=O)(=O)c3cccc4nc(C)ccc34)CCCO2)c1 (stereo not shown) [Example 21]
[2] CCOc1ccc(C)cc1[C@@]1(C(=O)NS(=O)(=O)c2cccc3nc(C)ccc23)CCCO1 (single isomer, unassigned) [Example 2]
Data request: Which item exceeds the other in Emax (% Dual), 1 or 2 ? Answer by quoting the chosen item's label.
Data returned: 2

====

biological target: F508delCFTR (Homo sapiens, UniProt P13569, DEL508-508); construct: expressed in transfected cells; host or cells: CFBE41o- human lung derived epithelial cell line, doxycycline-induced expression; assay: Cell Surface Expression-Horse Radish Peroxidase (CSE-HRP) assay in CFBE41o-F508delCFTR-HRP cells; assay type: cell-based; details: without co-corrector; normalized to on-plate positive control; read-out: Maximum % activity (without co-corrector)
Sequence (P13569 with tags, fused parts or gaps DEL508-508): as above
QUANTITY: Emax (%)

The following compounds have reported results that may help.
COMPOUND: COc1ccc(C)cc1[C@]1(C(=O)NS(=O)(=O)c2cccc3nc(C)ccc23)C[C@@H](c2ccccc2)CO1 [Example 36]
Emax (%): 443
//
COMPOUND: COc1ccc(C)cc1[C@@]1(C(=O)NS(=O)(=O)c2cccc3nc(N)ccc23)C[C@H](c2ccccc2)CO1 [Example 41]
Emax (%): 872
//
COMPOUND: COc1ccc(C)cc1[C@]1(C(=O)NS(=O)(=O)c2cccc3nc(C)ccc23)C[C@H](c2ccccc2)CO1 [Example 37]
Emax (%): 217
//
COMPOUND: COc1ccc(C)cc1[C@@]1(C(=O)NS(=O)(=O)c2cccc3nc(C)ccc23)CC2(CC2)CO1 [Example 15]
Emax (%): 307
//
COMPOUND: COc1ccc([C@@H]2CO[C@@](C(=O)NS(=O)(=O)c3cccc4nc(C)ccc34)(c3cc(C)ccc3OC)C2)cc1 [Example 44]
Emax (%): 512
//
COMPOUND: COc1ccc(C)cc1[C@@]1(C(=O)NS(=O)(=O)c2cccc3nc(C)ccc23)C[C@@H](OC)CO1 [Example 29]
Emax (%): 213
//
COMPOUND: COc1ccc(C)cc1[C@@]1(C(=O)NS(=O)(=O)c2cccc3nc(C)ccc23)C[C@H](c2ccccc2)CO1 [Example 33]
Emax (%): 756
//
COMPOUND: CCOc1ccc(C)cc1[C@]1(C(=O)NS(=O)(=O)c2cccc3nc(C)ccc23)CCCO1 [Example 1]
Emax (%): 233

[1] COc1ccccc1[C@H]1CO[C@@](C(=O)NS(=O)(=O)c2cccc3nc(C)ccc23)(c2cc(C)ccc2OC)C1 [Example 38]
[2] CCc1ccc(Oc2ccccc2)c([C@]2(C(=O)NS(=O)(=O)c3cccc4nc(C)ccc34)CCCO2)c1 [Example 22]
[3] COc1ccc([C@H]2CO[C@@](C(=O)NS(=O)(=O)c3cccc4nc(C)ccc34)(c3cc(C)ccc3OC)C2)cc1 [Example 45]
[4] COc1ccc(C)cc1[C@]1(C(=O)NS(=O)(=O)c2cccc3nc(C)ccc23)CC2(CC2)CO1 [Example 16]
Data request: Order the 4 compounds from highest to lowest Emax. Response format: the labels, sorted as the prompt asks.
Data returned: 1, 3, 2, 4
(1: 679%, 3: 386%, 2: 235%, 4: 147%)

====

molecular target: F508delCFTR (Homo sapiens, UniProt P13569, DEL508-508); construct: expressed in transfected cells; host or cells: CFBE41o- human lung derived epithelial cell line, doxycycline-induced expression; assay: Cell Surface Expression-Horse Radish Peroxidase (CSE-HRP) assay in CFBE41o-F508delCFTR-HRP cells; format: cell-based; conditions: without co-corrector; CFBE41o-F508delCFTR-HRP cells, 18-24 hours at 33° C.; read-out: EC50 (without co-corrector)
QUANTITY: EC50 (nM)

The following compounds have reported results that may help.
COMPOUND: CCc1ccc(Oc2cccnc2OC(F)F)c([C@@]2(C(=O)NS(=O)(=O)c3cccc4nc(C)ccc34)CCCO2)c1
QUANTITY: EC50
READOUT UNIT: nM
REPORTED RESULT: 1470

COMPOUND: COc1cccc([C@@H]2CO[C@@](C(=O)NS(=O)(=O)c3cccc4nc(C)ccc34)(c3cc(C)ccc3OC)C2)c1
QUANTITY: EC50
READOUT UNIT: nM
REPORTED RESULT: 1120

COMPOUND: CCc1ccc(Oc2cccnc2OC(F)F)c(C2(C(=O)NS(=O)(=O)c3cccc4nc(C)ccc34)CCCO2)c1 (centres unmarked)
QUANTITY: EC50
READOUT UNIT: nM
REPORTED RESULT: 1540

COMPOUND: CCOc1ccc(C)cc1[C@@]1(C(=O)NS(=O)(=O)c2cccc3nc(C)ccc23)CCCO1 (single isomer, unassigned)
QUANTITY: EC50
READOUT UNIT: nM
REPORTED RESULT: 1540

COMPOUND: COc1ccc(C)cc1[C@@]1(C(=O)NS(=O)(=O)c2cccc3nc(N)ccc23)C[C@H](c2ccccc2)CO1
QUANTITY: EC50
READOUT UNIT: nM
REPORTED RESULT: 760

[A] CCc1ccc(Oc2ccccc2)c([C@]2(C(=O)NS(=O)(=O)c3cccc4nc(C)ccc34)CCCO2)c1
[B] COc1ccccc1[C@@H]1CO[C@@](C(=O)NS(=O)(=O)c2cccc3nc(C)ccc23)(c2cc(C)ccc2OC)C1
[C] CCc1ccc(OCC(C)OC)c([C@@]2(C(=O)NS(=O)(=O)c3cccc4nc(C)ccc34)CCCO2)c1 (stereo in doubt)
Data request: Order the 3 compounds from highest to lowest EC50. Response format: the labels, sorted as the prompt asks.
Data returned: C, A, B

====

Molecular target: F508del/F508del CFTR (Homo sapiens, UniProt P13569, DEL508-508)
Construct: cells isolated from CF patients with the homozygous mutation; endogenous in cells; host or cells: primary human bronchial epithelial (hBE) cells from CF patients homozygous for F508del
Assay: Trans-Epithelial Current Clamp (TECC) assay using primary human bronchial epithelial cells
Type: cell-based
Conditions: maximum percent activity relative to positive control (co-corrector 0.15 μM + potentiator 0.45 μM = 100%)
Excerpt: A cell-based assay was developed using the primary human bronchial epithelial cells (hBE cells) with F508del/F508del CFTR and other mutations. Primary human bronchial epithelial (hBE) cells from CFTR patients with homozygous F508del/F508del mutation were expanded from 1×10^6 to 250×10^6 cells (Neuberger, T et al., 2011, Methods Mol Biol 741:39-54). […]
QUANTITY: Emax (% Dual)

SMILES INPUT: COc1ccccc1[C@H]1CO[C@@](C(=O)NS(=O)(=O)c2cccc3nc(C)ccc23)(c2cc(C)ccc2OC)C1
Emax (% Dual): 244

SMILES INPUT: COc1ccc(C)cc1[C@@]1(C(=O)NS(=O)(=O)c2cccc3nc(C)ccc23)C[C@H](C)CO1
Emax (% Dual): 201

SMILES INPUT: COc1ccc(C)cc1[C@@]1(C(=O)NS(=O)(=O)c2cccc3nc(C)ccc23)C[C@@H](OC)CO1
Emax (% Dual): 230

SMILES INPUT: COc1ccc(C)cc1[C@@]1(C(=O)NS(=O)(=O)c2cccc3nc(C)ccc23)C[C@@H](C)CO1
Emax (% Dual): 253

====

Target: F508del/F508del CFTR (Homo sapiens, UniProt P13569, DEL508-508)
Construct: cells isolated from CF patients with the homozygous mutation; endogenous in cells; host or cells: primary human bronchial epithelial (hBE) cells from CF patients homozygous for F508del
Assay: Trans-Epithelial Current Clamp (TECC) assay using primary human bronchial epithelial cells
Assay type: cell-based
Conditions: primary hBE cells F508del/F508del; test corrector with co-corrector and potentiator, 18-24 hours; equivalent CFTR current
Text: A cell-based assay was developed using the primary human bronchial epithelial cells (hBE cells) with F508del/F508del CFTR and other mutations. Primary human bronchial epithelial (hBE) cells from CFTR patients with homozygous F508del/F508del mutation were expanded from 1×10^6 to 250×10^6 cells (Neuberger, T et al., 2011, Methods Mol Biol 741:39-54). […]
QUANTITY: EC50

COMPOUND: CCOc1ccc(CC)cc1[C@]1(C(=O)NS(=O)(=O)c2cccc3nc(C)ccc23)CCCO1
QUANTITY: EC50
REPORTED RESULT: > 300 nM
--
COMPOUND: CCOc1ccc(C)cc1[C@@]1(C(=O)NS(=O)(=O)c2cccc3nc(C4CC4)ccc23)CCCO1
QUANTITY: EC50
REPORTED RESULT: 19.5 nM
--
COMPOUND: COc1ccc(C)cc1[C@]1(C(=O)NS(=O)(=O)c2cccc3nc(C)ccc23)CC2(CC2)CO1
QUANTITY: EC50
REPORTED RESULT: > 300 nM

Data request: Fill blank: measured EC50 of the compound CCc1ccc(Oc2cccnc2OC)c(C2(C(=O)NS(=O)(=O)c3cccc4nc(C)ccc34)CCCO2)c1 (stereo not shown) is ____.
Data returned: > 800 nM
